biological target: Left-right determination factor 2 (Homo sapiens); assay: LEFTY2 binders on small-molecule microarrays, primary screen, biochemical, small-molecule microarray, 635 nm fluorescence scan (AID 1110); settings: LEFTY2 binding, higher = more signal
Listing of recorded composite z-score by entry.
assayMetric: composite z-score

1. C#CCCCON=C1C[C@@H](O)[C@@H](O)[C@@H]2[C@@H]3C(=O)N([C@@H](C)c4ccccc4)C(=O)[C@@H]3CC[C@@H]12	0.201
2. COC(=O)[C@H](C)NC(=O)CCC1CC(OC(=O)NCc2cccc3ccccc23)CC2(CCCC(COC(=O)NCCc3ccccc3OC)O2)O1 (some centres undefined)	0.621
3. COC(=O)CC=C[C@@H](C)[C@@H](C=NOC(C)CN1CCCCc2nc(C)c(C)cc21)OC (some centres undefined)	1.11
4. C[C@H]1C=CCC(=O)OC[C@H](C)C(=O)N2CCC[C@H]2C(=O)OC1	1.62
5. CC(=O)OC[C@H]1O[C@H](C#CCC2CCCCC2)C=C[C@@H]1OC(C)=O	0.992
6. CC(CCN1CCCc2nc(C)c(C)cc21)=NO[C@H](C)c1cn([C@H](CO)Cc2ccccc2)nn1	0.796
7. CC1(C)O[C@H]2O[C@H]([C@H](O)CON=C3[C@H]4CCn5c(=O)n(-c6ccccc6)c(=O)n5[C@H]4[C@H](O)[C@@H]4O[C@H]34)[C@H](O)[C@H]2O1	0.257
8. O=C1CCCC=C1C(O)c1ccc([N+](=O)[O-])cc1 (centres undefined)	0.387
9. CCc1cc2c(nc1CC)CCN(CCC(C)=NOC[C@@H](C)[C@H](OCc1ccccc1)C(C)C)C2	-0.964
10. CCOC(=O)CCN1C(=O)[C@H]2[C@H]3[C@H](O)[C@H](O)CC(=NO[C@@H]4O[C@H](CO)[C@@H](O)[C@H](O)[C@H]4O)[C@@H]3CC[C@H]2C1=O	0.809
11. O=C1[C@H]2[C@H]3[C@H](O)[C@H](O)CC(=NO[C@@H]4O[C@H](CO)[C@@H](O)[C@H](O)[C@H]4O)[C@H]3CC[C@H]2C(=O)N1c1ccc(F)cc1F	0.382
12. O=C1C2=CC[C@H]3C(=O)N(C[C@@H]4CCCO4)C(=O)[C@H]3[C@H]2[C@H](O)[C@@H]2O[C@H]12	0.153
13. C=CCOCC1CN2[C@@H](CC[C@@H](C)[C@@H]2c2ccc(Br)cc2)C(=O)O1 (some centres undefined)	0.0328
14. COC(=O)[C@@H]1CC[C@H](C)[C@@H](c2ccc(Br)cc2)N1C[C@H](O)CN=[N+]=[N-]	0.346
15. CC(=O)OC[C@H]1O[C@H](C#CCCc2ccccc2)C=C[C@@H]1OC(C)=O	0.751
16. CCOC(=O)NN=C1C[C@@H](O)[C@@H](O)[C@@H]2[C@@H]3C(=O)N(CC)C(=O)[C@@H]3CC[C@H]12	0.346
17. CCOC(=O)[C@H](Cc1ccccc1)NC(=O)CCC1CC(OC(=O)NCCc2ccc(F)cc2)CC2(CCCC(COC(=O)NCCC(C)C)O2)O1 (some centres undefined)	0.676
18. C#CCCCON=C1C[C@@H](O)[C@@H](O)[C@@H]2[C@@H]3C(=O)N(CC)C(=O)[C@@H]3CC[C@H]12	0.278
19. O=C1[C@H]2[C@H]3[C@H](O)[C@H](O)CC(=NOC[C@@H](O)COCc4ccco4)[C@@H]3CC[C@H]2C(=O)N1c1cccc(Oc2ccccc2)c1	0.103
20. COC(=O)CC=C[C@@H](C)[C@@H](C=NOC[C@@H](C)[C@H](OCc1ccccc1)C(C)C)NS(=O)(=O)c1ccc(C)cc1	0.21
21. CCCNC(=O)OC[C@H]1O[C@H](CCON=C2C[C@@H](O)[C@@H](O)[C@@H]3[C@@H]4C(=O)N(CC)C(=O)[C@@H]4CC[C@@H]23)C=C[C@@H]1Oc1ccc(OC)cc1	0.928
22. CON=C(C)CCC(=O)OC[C@H]1O[C@H](C#Cc2ccccc2)C=C[C@@H]1Oc1ccc(C)cc1	0.395
23. CC(C)=CCCC(C)=CCON=C1C[C@@H](O)[C@@H](O)[C@@H]2[C@@H]3C(=O)N([C@@H](C)c4ccccc4)C(=O)[C@@H]3CC[C@@H]12	0.898
24. CCOC(=O)[C@H](CC(C)C)NC(=O)CCC1CC(OC(=O)NCc2ccc3c(c2)OCO3)CC2(CCCC(COC(=O)NCc3ccccc3)O2)O1 (some centres undefined)	0.355
25. CC(C)(C)N1C(=O)[C@H]2[C@H]3[C@H](O)[C@H](O)CC(=NOC[C@@H](O)COCc4ccco4)[C@H]3CC[C@H]2C1=O	-0.203
26. CCN1C(=O)[C@H]2[C@H]3[C@H](O)[C@H](O)CC(=NO[C@@H](C)c4cc(-c5c(C)cc(C)cc5C)no4)[C@@H]3CC[C@H]2C1=O	0.685
27. CC(=O)OC[C@H]1O[C@H](CC=NOC[C@@H](O)[C@H]2O[C@@H]3OC(C)(C)O[C@@H]3[C@H]2O)C=C[C@@H]1OC(C)=O	0.439
28. CC(CCN1CCCCc2nc(C)c(C)cc21)=NO[C@@H](C)c1cc(-c2c(C)cc(C)cc2C)no1	-0.747
29. CCOC(=O)[C@H](Cc1ccccc1)NC(=O)CCC1CC(OC(=O)NCc2ccc3c(c2)OCO3)CC2(CCCC(COC(=O)NCCCN3CCCC3=O)O2)O1 (some centres undefined)	0.56
